Reported values of Drug metabolism for individual entries
# procedureText: Prodrug activation in Escherichia coli CFT073 harboring CTX-M-1 assessed as bacterial CTX-M-1-mediated compound hydrolysis incubated for 1 hr by 1H-NMR analysis
# assayContext: bacteria
valueKind: Drug metabolism

recordSmiles: CC(=O)OCC1=C(C(=O)O)N2C(=O)[C@@H](NC(=O)c3ccc(C)cc3)[C@H]2SC1
result: 3%

recordSmiles: CC(=O)OCC1=C(C(=O)O)N2C(=O)[C@@H](NC(=O)Cc3ccc(Oc4ccccc4)cc3)[C@H]2SC1
result: 4%

recordSmiles: CC(=O)OCC1=C(C(=O)O)N2C(=O)[C@@H](NC(=O)c3ccco3)[C@H]2SC1
result: 64%

recordSmiles: CC(=O)OCC1=C(C(=O)O)N2C(=O)[C@@H](NC(=O)Cc3cccs3)[C@H]2SC1
result: 68%

recordSmiles: CC(=O)OCC1=C(C(=O)O)N2C(=O)[C@@H](NC(=O)Cc3ccc(F)cc3)[C@H]2SC1
result: 18%

###

Reported values of MIC for individual entries
# Test system: Escherichia coli
# procedureText: Growth inhibition of ciprofloxacin-susceptible Escherichia coli DH5[alpha] incubated for 18 hrs by broth microdilution method
# Type: organism-based
# assayContext: in vivo

recordSmiles: CC(=O)OCC1=C(C(=O)O)N2C(=O)[C@@H](NC(=O)Cc3ccc(Oc4ccccc4)cc3)[C@H]2SC1
measuredOn: Escherichia coli
MIC: > 800 µM
--
recordSmiles: COc1ccc(C(=O)N[C@@H]2C(=O)N3C(C(=O)O)=C(COC(C)=O)CS[C@H]23)cc1
measuredOn: Escherichia coli
MIC: > 800 µM
--
recordSmiles: CC(=O)OCC1=C(C(=O)O)N2C(=O)[C@@H](NC(=O)c3ccc([N+](=O)[O-])cc3)[C@H]2SC1
measuredOn: Escherichia coli
MIC: > 400 µM
--
recordSmiles: CC(=O)OCC1=C(C(=O)O)N2C(=O)[C@@H](NC(=O)Cc3ccc(-c4ccccc4)cc3)[C@H]2SC1
measuredOn: Escherichia coli
MIC: > 800 µM
--
recordSmiles: CC(=O)OCC1=C(C(=O)O)N2C(=O)[C@@H](NC(=O)c3ccco3)[C@H]2SC1
measuredOn: Escherichia coli
MIC: > 400 µM
--
recordSmiles: CC(=O)OCC1=C(C(=O)O)N2C(=O)[C@@H](NC(=O)c3ccccc3)[C@H]2SC1
measuredOn: Escherichia coli
MIC: > 400 µM
--
recordSmiles: CC(=O)OCC1=C(C(=O)O)N2C(=O)[C@@H](NC(=O)C3CCCCC3)[C@H]2SC1
measuredOn: Escherichia coli
MIC: > 400 µM
--
recordSmiles: CC(=O)OCC1=C(C(=O)O)N2C(=O)[C@@H](NC(=O)c3ccc(C)cc3)[C@H]2SC1
measuredOn: Escherichia coli
MIC: > 400 µM
--
recordSmiles: CC(=O)OCC1=C(C(=O)O)N2C(=O)[C@@H](NC(=O)Cc3cccc(Oc4ccccc4)c3)[C@H]2SC1
measuredOn: Escherichia coli
MIC: > 800 µM
